meta.source: PubChem BioAssay (NCI)

Collected TGI values appear next to each entry.
# Test system: HCT-116 colon
# assay info: NCI tumour cell line growth inhibition, 48 h

- compound: "COC1/C=C\\C=C(/C)C(=O)NC2=CC(=O)C(=O)C(=C2O)CC(C)CC(OC)C(O)C(C)/C=C(\\C)C1OC(N)=O (centres undefined)"
  value reported: "14.4 µM"

Query: Notebook: pull reported TGI for HCT-116 colon, entry C=C1C(=O)O[C@H]2[C@H]1CC/C(Cn1cc(-c3ccc(OC)cc3)nn1)=C\CC[C@@]1(C)O[C@@H]21
Result: 1.79 µM

Query: What value of TGI on HCT-116 colon does Brc1cc2nn(-c3ccccc3)nc2c2nonc12 have?
Result: > 100 µM

* * *

Reported TGI by item:
# Test system: HOP-62 NSCLC
# assay info: NCI tumour cell line growth inhibition, 48 h
Entry rule: numbers only, all in µM.

Reference set (6 entries):
- molecule: "O=C1C=C(c2ccccc2)O/C1=C/C(=O)c1ccc(Cl)cc1"
  target desc: "HOP-62 NSCLC"
  value units: "µM"
  value reported: 85.3
- molecule: "CC(=O)OC/C=C(/C=C/CNC1CCCCC1)OC(C)=O"
  target desc: "HOP-62 NSCLC"
  value units: "µM"
  value reported: 31.1
- molecule: "COC(=O)[C@]12CC[C@@H](C)[C@H](C)[C@@H]1C1=CC[C@@H]3[C@@]4(C)C/C(=N\\O)[C@H](O)[C@@]5(C)COC(=C45)C[C@@]3(C)[C@]1(C)CC2"
  target desc: "HOP-62 NSCLC"
  value units: "µM"
  value reported: 26.3
- molecule: "O=c1c(-c2ccc(Cl)cc2)nnc2n(Cc3ccccc3)c3ccccc3n12"
  target desc: "HOP-62 NSCLC"
  value units: "µM"
  value reported: 44.9
- molecule: "FC(F)(F)c1ccc2nc3n(c2c1)C(c1c(Cl)cccc1Cl)SC3 (stereo unspecified)"
  target desc: "HOP-62 NSCLC"
  value units: "µM"
  value reported: 29.8
- molecule: "CCC(=O)Oc1c2ccsc2c(OC(=O)CC)c2ccsc12"
  target desc: "HOP-62 NSCLC"
  value units: "µM"
  value reported: 2.95

Query: For the molecule shown here, Oc1ccc(NCc2nc3ccccc3[nH]2)cc1 , give the reported TGI.
Result: 62.2

Query: Which TGI is reported for this molecule? CC[CH2][Sn]([CH2]CC)([O]C(=O)c1cccnc1SC)[O][Sn]([CH2]CC)([CH2]CC)[O]C(=O)c1cccnc1SC
Result: 5.31

Query: I have this molecule here, CC[C@]1(O)C[C@@H]2CN(CCc3c([nH]c4ccccc34)[C@@](C(=O)OC)(c3cc4c(cc3OC)N(C)[C@H]3[C@@](O)(C(=O)OC)[C@H](OC(C)=O)[C@]5(CC)C=CCN6CC[C@]43[C@@H]65)C2)C1 , and I need its recorded TGI.
Result: 24.1

* * *

# Test system: HL-60(TB) leukemia
# assay info: NCI tumour cell line growth inhibition, 48 h
Recorded TGI, one value per entry.
Please reply with the bare figure in µM and do not write the unit itself.

Some compounds with known TGI results, for comparison:
- compound: "O=C1c2cc(Cl)ccc2S(=O)(=O)c2c(NCCCNCCO)nc3ccccc3c21"
  target desc: "HL-60(TB) leukemia"
  value units: "µM"
  TGI: 6.79
- compound: "CC(C)(C)C1C=C(Sc2ccccc2)C(=O)O1 (configuration not stated)"
  target desc: "HL-60(TB) leukemia"
  value units: "µM"
  TGI: 55.7
- compound: "CCOc1cc2c(Cl)ncnc2c(OCC)c1OCC"
  target desc: "HL-60(TB) leukemia"
  value units: "µM"
  TGI: 15.5

// below: TGI requested for another compound
Query: Reported TGI for COC(=O)[C@]12CC[C@@H](C)[C@H](C)[C@@H]1C1=CC[C@@H]3[C@@]4(C)C/C(=N\O)[C@H](O)[C@@]5(C)COC(=C45)C[C@@]3(C)[C@]1(C)CC2 : what is it?
Result: 13.2
